Provenance of the data: patent US20230391876A1

koff reference
# Tested On: T1, shFcRn (soluble human FcRn) (human, UniProt P55899 24-297; P61769 21-119)
# T1 construct: extracellular domain; Printed only as 'soluble human FcRn'; also called hFcRn (immobilized on a chip)
# T1 sequence (P55899 24-297 limits assumed, chain 1 of 2): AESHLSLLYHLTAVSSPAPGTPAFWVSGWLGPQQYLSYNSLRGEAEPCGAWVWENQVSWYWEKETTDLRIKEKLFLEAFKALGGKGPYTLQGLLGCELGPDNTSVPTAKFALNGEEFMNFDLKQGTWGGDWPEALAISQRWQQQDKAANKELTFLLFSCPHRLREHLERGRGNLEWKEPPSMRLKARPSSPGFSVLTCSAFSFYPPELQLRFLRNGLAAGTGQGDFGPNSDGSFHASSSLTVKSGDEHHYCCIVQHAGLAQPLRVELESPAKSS
# T1 sequence (P61769 21-119 limits assumed, chain 2 of 2): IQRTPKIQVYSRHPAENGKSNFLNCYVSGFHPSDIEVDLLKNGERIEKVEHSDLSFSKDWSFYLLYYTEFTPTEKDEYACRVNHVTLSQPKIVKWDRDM
# Assay Details: SPR, shFcRn immobilized on chip, antibody as analyte, pH 7.4;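 note: kinetics fitted with a 1:1 Langmuir model, association 200 s and dissociation 600 s in PBST, double-referenced against buffer-only and interspot signals, values averaged over repeated runs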
Provide only the numeric value, understood in s⁻¹.

# count of solved cases: 2
[
  {
    "Binder": "HL161AN variant No. 10 (LC:N25S, HC:C32Y Q82T) (antibody, human IgG1, V domains shown, Variable domains only) VL: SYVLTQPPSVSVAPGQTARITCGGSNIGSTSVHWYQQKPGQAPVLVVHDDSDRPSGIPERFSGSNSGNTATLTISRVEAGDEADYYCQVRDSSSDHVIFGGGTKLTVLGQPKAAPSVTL VH: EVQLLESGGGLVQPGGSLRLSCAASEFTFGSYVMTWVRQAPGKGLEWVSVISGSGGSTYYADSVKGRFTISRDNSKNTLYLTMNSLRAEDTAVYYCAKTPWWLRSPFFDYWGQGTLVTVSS",
    "Parameter Measured": "koff",
    "Value Reported": 0.000494
  },
  {
    "Binder": "HL161AN variant No. 12 (LC:N25Q, HC:C32S) (antibody, V domains shown, also called HL161ANQ; #12 (HL161ANQ)) VL: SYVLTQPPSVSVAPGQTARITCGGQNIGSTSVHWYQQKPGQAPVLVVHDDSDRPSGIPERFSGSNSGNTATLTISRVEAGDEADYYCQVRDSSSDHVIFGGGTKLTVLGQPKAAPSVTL VH: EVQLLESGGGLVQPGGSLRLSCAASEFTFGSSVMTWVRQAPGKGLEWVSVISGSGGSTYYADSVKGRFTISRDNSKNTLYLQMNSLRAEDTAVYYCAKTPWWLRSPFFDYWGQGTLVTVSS",
    "Parameter Measured": "koff",
    "Value Reported": 0.000499
  }
]

We next turn to a different binder, shown below.
Prompt: Which koff reading was recorded for the binder HL161AN variant No. 18 (LC:N25Q, HC:C32S Q82T) (antibody, human IgG1, V domains shown, Variable domains only) VL: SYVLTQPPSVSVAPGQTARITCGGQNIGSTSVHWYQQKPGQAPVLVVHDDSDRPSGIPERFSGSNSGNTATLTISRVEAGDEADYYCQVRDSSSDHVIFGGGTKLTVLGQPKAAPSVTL VH: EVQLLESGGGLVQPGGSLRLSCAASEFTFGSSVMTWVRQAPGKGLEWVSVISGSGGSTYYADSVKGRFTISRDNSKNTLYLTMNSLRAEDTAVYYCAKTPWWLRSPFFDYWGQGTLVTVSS ?
Completion: 0.000542
